Numbers sourced from PubChem BioAssay.

Test: binders of probe aFST on microarray, primary screen, stem cell growth factor project, biochemical, small-molecule microarray, fluorescence 635/667 (AID 1086);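 further: score merges 667 nm fluorescence with signal-to-noise of each printed compound spot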
Details: higher = more signal
MEASUREMENT KIND: composite z-score
Please state the value as a number alone, without comment.

>  <COMPOUND>
[N-]=[N+]=NCc1ccccc1C[C@]1(C(=O)N2CCOCC2)COC(c2ccc(OCCCO)cc2)=N1

>  <composite z-score>
0.73

$$$$

Task item: Sample CC(=O)N1CC(C(O)C2C=CC3C(=O)NC(=O)C3N2Nc2ccc(Cl)cc2Cl)c2ccccc21 (configuration not stated) — what was its composite z-score?
Reply: 0.496

Task item: Now the compound COc1cc(C(O)C2C=CC3C(=O)N(Cc4ccccc4)C(=O)C3N2n2cnnc2)cc(OC)c1OC (configuration not stated)
Reply: 0.39

Task item: Now the compound C=CCC(OC(C)=O)[C@@H]1[C@@H](N(Cc2ccc(-c3ccccc3)cc2)C(=O)c2ccc(C)cc2)c2cc(OCCCO)ccc2N1C(=O)Cc1ccc2ccccc2c1 (some centres not stated)
Reply: 0.203

Task item: Now the compound COc1cc(NN2C(C(O)C3CCCCC3)C=CC3C(=O)N(C)C(=O)C32)cc(OC)c1OC (configuration not stated)
Reply: 0.479

Task item: Now the compound C=C(COC)C(=O)CC[C@H](OC(C)=O)c1ccc(OCCO)cc1
Reply: 0.375

Task item: Now the compound C=C(C(=O)CC[C@H](OC(=O)c1ccccc1-c1ccccc1C(=O)O)c1ccccc1OCCO)C(C)C
Reply: 0.117

----------
Listed below: composite z-score values for each entry.
Target: Torsin-1A (Homo sapiens)
Assay: torsin A binders from cell lysate, primary screen, small-molecule microarray, wild-type, 635/667 nm (AID 1149)
Conditions: COS7 hTOR1A-WT lysate, 635 nm fluorescence, higher = more signal
Please state the value as a number alone, without comment.

Use the examples below as a reference point.
>  <COMPOUND>
O=C1N(CCS(=O)(=O)c2ccccc2)Cc2ccccc2[C@@H]2OC(c3ccc(OCCCO)cc3)=N[C@]12CCS(=O)(=O)c1ccccc1

>  <composite z-score>
0.827

$$$$
>  <COMPOUND>
O=C(O)[C@@H]1C[C@@H]2C(=O)N3CCC[C@H]3C(=O)N2[C@@H]1c1cccc(OCCO)c1

>  <composite z-score>
2.99

$$$$
>  <COMPOUND>
COCCOC(=O)N1C(=O)[C@@]2(c3ccccc31)[C@H](c1ccc(OCCO)cc1)N1[C@H](c3ccccc3)[C@H](c3ccccc3)OC(=O)[C@H]1[C@@H]2C(=O)N1CCCCCCC1

>  <composite z-score>
3.76

$$$$
>  <COMPOUND>
CC1(C)C(=O)C(c2ccccc2)=C2CN3C(=O)N(CCc4ccccc4)C(=O)C3(Cc3ccc(C(F)(F)F)cc3)C=C21 (stereo unspecified)

>  <composite z-score>
-0.102

$$$$
>  <COMPOUND>
Cc1ccc(F)cc1S(=O)(=O)N[C@@H]1CCN(Cc2cccc3[nH]ccc23)C1

>  <composite z-score>
0.495

$$$$

Moving on to another compound below.
Task item: Sample COC(=O)C1N=C(c2ccc(OCCCO)cc2)N(c2ccccc2)O1 (stereo unspecified) — what was its composite z-score?
Reply: 0.654

----------
Assay: S. cerevisiae growth modulation with rapamycin, primary screen, strain BY4716, OD600, 96 h (AID 1091); further: test concentration not given here
Conditions: called active from +8 up or from −8 down
Active and inactive are the calls of the source.
// classify into active, inactive

>  <MOLECULE>
CC(C)OC(=O)CC(=O)CC(O)c1ccc([N+](=O)[O-])cc1 (centres undefined)

>  <CLASSIFICATION>
inactive

$$$$
>  <MOLECULE>
CCOC(=O)C1=CC[C@@H](c2ccccc2)N(S(=O)(=O)c2ccc(C)cc2)[C@H]1c1cccc(OC)c1

>  <CLASSIFICATION>
inactive

$$$$
>  <MOLECULE>
CC(C)=CCCC(C)=CC(O)C1C=CC2C(=O)N(c3ccccc3)C(=O)C2N1Nc1ccccc1F (centres undefined)

>  <CLASSIFICATION>
inactive

$$$$
>  <MOLECULE>
COC(=O)[C@@]1(Cc2ccccc2CN=[N+]=[N-])N=C(c2ccc(OCCCO)cc2)O[C@H]1c1ccccc1

>  <CLASSIFICATION>
active

$$$$
>  <MOLECULE>
CCCC=C(CCC)[C@@H](NS(=O)(=O)c1cccc2cccnc12)c1ccc(-c2ccccc2)cc1

>  <CLASSIFICATION>
inactive

$$$$
>  <MOLECULE>
COCCOC(=O)N1C(=O)[C@@]2(c3ccccc31)[C@H](c1ccccc1OCCO)N1[C@H](c3ccccc3)[C@H](c3ccccc3)OC(=O)[C@H]1[C@@H]2C(=O)N1CCCCCCC1

>  <CLASSIFICATION>
inactive

$$$$
>  <MOLECULE>
COc1ccc(C(=O)Nc2cccc(CN3C(=O)[C@]4(O[C@H](CCn5cc([C@H](O)c6ccccc6)nn5)[C@@H]([Si](C)(C)c5ccc(OC)cc5)[C@@H]4C)c4ccccc43)c2)cc1

>  <CLASSIFICATION>
inactive

$$$$
>  <MOLECULE>
C=C[C@H](C)[C@H](OC(=O)Nc1ccc(OC)cc1)c1ccc(OCCO)cc1

>  <CLASSIFICATION>
inactive

$$$$

Task item: Each molecule tested received a call. Report the one for Cc1ccc(C(C)CC(O)C2C=CC3C(=O)N(c4ccccc4)C(=O)C3N2Nc2ccc(C#N)cc2)o1 (centres undefined) .
Reply: inactive
